experiment: Forced degradation of psilocin salts, oxidative (0.30% H2O2)
condition.context: 0.30% H2O2 (oxidative forced degradation), half-life, 0.30% H2O2, RT
measurement.name: half-life at 24 h, 2 mg/mL freebase psilocin (min)
Report as a plain number; the unit min is understood.

I'd like to know its half-life at 24 h, 2 mg/mL freebase psilocin. The compound in question is CN(C)CCc1c[nH]c2cccc(O)c12.O=P(O)(O)O 800

* * *

Here, each record is paired with measured % psilocin remaining data.
experiment: Photolytic degradation of psilocin salts
condition.context: after 14 days, 12900 lx
Report as a plain number; the unit % is understood.

Example cases with answers are listed next.
# compound, measurement.name, reading
records = [
    ("CN(C)CCc1c[nH]c2cccc(O)c12.O=C(O)C(F)(F)F [Compound 9f]", "% psilocin remaining", 22),
    ("CN(C)CCc1c[nH]c2cccc(O)c12.OB(O)O [Compound 9b]", "% psilocin remaining", 0),
    ("CN(C)CCc1c[nH]c2cccc(O)c12.Cl [Compound 9a]", "% psilocin remaining", 51),
]

I'd like to know its % psilocin remaining. The compound in question is CN(C)CCc1c[nH]c2cccc(O)c12.O=P(O)(O)O [Compound 9e] 33

I'd like to know its % psilocin remaining. The compound in question is CN(C)CCc1c[nH]c2cccc(O)c12.O=C(O)c1ccccc1 [Compound 9c] 0
